# reported GI50; entries follow
system: MDA-MB-435; experiment: NCI tumour cell line growth inhibition, 48 h
The source made the active and inactive calls. Cut-off read from the data, not from the text of the source: active = GI50 up to about 1.1 µM and inactive = higher.

{"columns": ["COMPOUND", "GI50"],
 "data": [
  ["CCOC(=O)C(C(=O)COC(C)(C)C)[C@@H]1C=C[C@H](OC(C)=O)C1 (stereo not given in full)", "> 100 µM (inactive)"],
  ["N#CC(C#N)/N=N/c1ccc(-c2nc3ccccc3o2)cc1", "16.5 µM (inactive)"],
  ["COc1cc(C2SCC(=O)N2c2ccccn2)cc(OC)c1OC (stereo not given)", "27 µM (inactive)"],
  ["CC(=O)N1CC[N+](C)(CCCCN2c3ccccc3Sc3cc(N=[N+]=[N-])ccc32)CC1", "> 100 µM (inactive)"],
  ["CC(C)c1ccc(/C=C2\\N=C(c3ccc([N+](=O)[O-])cc3)OC2=O)cc1", "> 100 µM (inactive)"]
]}

---

system: SW-620; experiment: NCI tumour cell line growth inhibition, 48 h
Where a name gives a salt, the structure may show the parent alone. Active and inactive are the calls of the source. Rule as the data show it: active = GI50 up to about 1.1 µM and inactive = higher. *1 amine or outer side, *2 acyl side, *3 side chain or, on linkers, in order; H or OH if unused. Where a SMILES comes first, the peptide text is derived from it. Bridges are numbered along the chain shown (N, C = ends). [ ]: non-standard residue; d: D form. ξ: configuration not given here. X10 = CCC(C)C(N[*:1])C(O)CC(=O)O[C@H](C(=O)C(C)C(=O)[*:2])C(C)C; NMeY = CN[C@@H](Cc1ccc(O)cc1)C(=O)O; ξNMeL = CNC(CC(C)C)C(=O)O; ξT = CC(O)C(N)C(=O)O
Classes used: True = active, False = inactive

{"columns": ["COMPOUND", "LABEL"],
 "data": [
  ["Cc1ccc(C)c(NC(=O)CCc2nnc(S)[nH]2)c1", "False"],
  ["Cc1cc(Cl)ccc1NC(=O)CCCC(=O)C1CCC/C1=N\\NC(=O)CC#N (stereo not drawn)", "False"],
  ["Oc1c(Br)cc(Br)cc1CN(Cc1cc(Br)cc(Br)c1O)C1CCCCC1", "False"],
  ["O=C1CN2CCN(CC2)CC(=O)Nc2ccc(cc2)S(=O)(=O)c2ccc(cc2)NC(=O)CN2CCN(CC2)CC(=O)Nc2ccc(cc2)S(=O)(=O)c2ccc(cc2)N1", "False"],
  ["CC(=O)Nc1ccc(-c2nnc(SCC(=O)Nc3ccc(C)cc3)o2)cc1", "False"],
  ["O=C1NC(S(=O)(=O)O)=NNC12c1ccccc1-c1ccccc12", "False"],
  ["Nc1nc(-c2ccccc2)c(-c2ccccc2)c(-c2nc(N)nc(-c3ccccc3)c2-c2ccccc2)n1", "False"],
  ["CC(=O)O[C@H]1CC[C@@]2(C)C(=CC[C@@H]3[C@@H]2CC[C@]2(C)C(=N/O)/C(=C\\c4ccccc4)C[C@@H]32)C1", "False"],
  ["COc1cccc2cc(C(=O)Nc3ccccc3)c(=N)oc12", "False"],
  ["CCOC(=O)c1c2c(n(-c3ccc(C)cc3)c1C)-c1ccccc1C(=O)C2(C(=O)OCC)C(=O)OCC", "False"],
  ["CC1(CC2=C(C(=O)NCCO[Si](C)(C)C(C)(C)C)C3(OCCO3)C2=O)OCCO1", "False"],
  ["OCC(CN1CCCCC1)(CN1CCCCC1)CN1CCCCC1", "False"],
  ["CCN(CC)CCNc1ccc(C)c2sc3ccccc3c(=O)c12 [LUCANTHONE HYDROCHLORIDE]", "False"],
  ["O=C1CCC(=O)N1Sc1ccccc1", "False"],
  ["Nc1nc2c(ncn2C2OC(CO)C(O)C2N)c(=O)[nH]1 (stereo not drawn)", "False"],
  ["Cc1cccc(-c2cc(O)c3c(C)cc(C)nc3n2)c1", "True"],
  ["CCC(C)C1NC(=O)C(NC(=O)C(CC(C)C)N(C)C(=O)[C@@H]2CCCN2)C(C)OC(=O)[C@H](Cc2ccc(OC)cc2)N(C)C(=O)[C@@H]2CCCN2C(=O)[C@H](CC(C)C)NC(=O)C(C)C(=O)[C@H](C(C)C)OC(=O)CC1O (stereo partly drawn) (H-P[ξNMeL][ξT][X10]LP[NMeY](Me); ester 3-C)", "True"],
  ["S=c1oc(CCCCCCCCc2nn(CNc3ccc(Cl)cc3)c(=S)o2)nn1CNc1ccc(Cl)cc1", "False"]
]}

---

tested on: SR; test: NCI tumour cell line growth inhibition, 48 h
The source made the active and inactive calls. Rule as the data show it: active = GI50 up to about 1.1 µM and inactive = higher.
ASSAY ENDPOINT: GI50

{"columns": ["COMPOUND", "RESULT"],
 "data": [
  ["Nc1ccc(C(=O)N/C(=C\\c2cccc([N+](=O)[O-])c2)c2nc3cc(Cl)ccc3[nH]2)cc1", "> 100 µM (inactive)"],
  ["OCC1OC(NC(=S)NCCC(F)(F)C(F)(F)C(F)(F)C(F)(F)C(F)(F)C(F)(F)F)C(O)C(O)C1O (stereo not given)", "> 100 µM (inactive)"],
  ["CC(=O)Nc1ccc(-c2nnc(SCC(=O)Nc3ccc(C)cc3)o2)cc1", "28 µM (inactive)"],
  ["O=C(CCC(=O)c1ccc(Cl)cc1)NO", "> 100 µM (inactive)"],
  ["O=C(/C(=C\\c1ccccc1)CN1CCOCC1)c1ccc(Br)cc1", "1.16 µM (inactive)"],
  ["O=C1CN2CCN(CC2)CC(=O)Nc2ccc(cc2)S(=O)(=O)c2ccc(cc2)NC(=O)CN2CCN(CC2)CC(=O)Nc2ccc(cc2)S(=O)(=O)c2ccc(cc2)N1", "4.56 µM (inactive)"],
  ["O=C1CSC(c2ccc([N+](=O)[O-])cc2)N1c1ccc(-c2ccc(-n3c(-c4ccccc4)nc4ccccc4c3=O)cc2)cc1 (stereo not given)", "18.7 µM (inactive)"],
  ["COc1ccc(NC(=S)N/N=C/c2c(C)n(C)n(-c3ccccc3)c2=O)cc1", "78.5 µM (inactive)"],
  ["COc1ccc(N(CN2C(=O)CCC2OC)C(C)=O)cc1 (stereo not given)", "> 100 µM (inactive)"],
  ["O=c1nc2occc2cn1C1CC(O)C(CO)O1 (stereo not given)", "> 100 µM (inactive)"],
  ["NCCCNCCSSCCCCS(=O)O", "3.37 µM (inactive)"],
  ["Cc1ccsc1C(=S)Nc1ccc(Cl)c(/C=N/OC(C)C)c1", "16.3 µM (inactive)"],
  ["O=C1NCC(NC(=O)C(F)(F)F)c2c(Br)sc(Br)c21 (stereo not given)", "> 100 µM (inactive)"],
  ["CCOC(=O)C1=C(C(=O)OCC)C2c3ccccc3C=CN2C(C(=O)OCC)=C(SC)S1 (stereo not given)", "19.3 µM (inactive)"],
  ["Cc1c2cccc-2ccc2c1[nH]c1ccc(Br)cc12", "3.04 µM (inactive)"]
]}

---

# reported GI50; entries follow
test system: HT-29; test: NCI tumour cell line growth inhibition, 48 h
Activity calls are given as the source filed them. Rule as the data show it: active = GI50 up to about 1.1 µM and inactive = higher.

{"columns": ["COMPOUND", "TARGET DESC", "GI50"],
 "data": [
  ["CCOC(=O)c1nc[nH]c1/N=N/N(C)N", "HT-29", "61.1 µM (inactive)"],
  ["CC(=O)C(C)CCOC1(C)OCCC1C (centres undefined)", "HT-29", "> 100 µM (inactive)"],
  ["Cc1ccc2c(=O)c3c(O)c4c(cc3n(C)c2c1)OC(C)(C)C=C4", "HT-29", "> 10 µM (inactive)"],
  ["CC1=CC(=O)/C(=C/Nc2nc(-c3ccc([N+](=O)[O-])cc3)cs2)C(=O)O1", "HT-29", "> 100 µM (inactive)"]
]}

---

tested on: ACHN; assay: NCI tumour cell line growth inhibition, 48 h
The source made the active and inactive calls. Cut-off read from the data, not from the text of the source: active = GI50 up to about 1.1 µM and inactive = higher. *1 amine or outer side, *2 acyl side, *3 side chain or, on linkers, in order; H or OH if unused. Where a SMILES comes first, the peptide text is derived from it. Bridges are numbered along the chain shown (N, C = ends). [ ]: non-standard residue; d: D form. ξ: configuration not given here. X10 = CCC(C)C(N[*:1])C(O)CC(=O)O[C@H](C(=O)C(C)C(=O)[*:2])C(C)C; NMeY = CN[C@@H](Cc1ccc(O)cc1)C(=O)O; ξNMeL = CNC(CC(C)C)C(=O)O; ξT = CC(O)C(N)C(=O)O
Classes used: Y = active, N = inactive

{"columns": ["COMPOUND", "LABEL"],
 "data": [
  ["CC(Oc1ccc2c(=O)cc(-c3ccccc3)oc2c1)C(=O)O (centres undefined)", "N"],
  ["C=CCN(N=O)C(=O)N(CCCC(NC(C)=O)C(=O)NCc1ccccc1)Cc1ccccc1 (centres undefined)", "N"],
  ["Cc1cc(C2(c3cc(C)c(O)c(C(=O)O)c3)OS(=O)(=O)c3ccccc32)cc(C(=O)O)c1O", "N"],
  ["COC1=C(Br)[C@H](O)[C@@]2(C=C1Br)CC(C(=O)NCCCCCNC(=N)N)=NO2", "N"],
  ["NCCCNCCSSCCCCS(=O)O", "N"],
  ["CCOc1ccc(NC(=O)CCC(=O)NN)cc1", "N"],
  ["CCOC(=O)C(NC(=O)Nc1ccccc1)(Nc1cccc(Cl)c1)C(F)(F)F (centres undefined)", "N"],
  ["CN(C)c1c(C2OC(CO)C(O)C2O)c(=O)c1=O (centres undefined)", "N"],
  ["CCC(C)C1NC(=O)C(NC(=O)C(CC(C)C)N(C)C(=O)[C@@H]2CCCN2)C(C)OC(=O)[C@H](Cc2ccc(OC)cc2)N(C)C(=O)[C@@H]2CCCN2C(=O)[C@H](CC(C)C)NC(=O)C(C)C(=O)[C@H](C(C)C)OC(=O)CC1O (some centres undefined) (H-P[ξNMeL][ξT][X10]LP[NMeY](Me); ester 3-C)", "Y"],
  ["N#CC(C#N)/N=N/c1ccc(-c2nc3ccccc3o2)cc1", "N"],
  ["Oc1ccccc1/C=N/N1C(=S)N(c2ccccc2)C(=N\\c2ccccc2)/C1=N/c1ccccc1", "N"],
  ["Cc1cc(NCCCCCCCNc2cc(C)nc3cc(N)ccc23)c2ccc(N)cc2n1", "N"],
  ["COC(=O)c1cc(C)ccc1CC(Cc1ccccc1C)C(=O)OC (centres undefined)", "N"],
  ["N#CC1CCN2N=C(c3ccccc3)SC12c1ccccc1 (centres undefined)", "N"],
  ["Cc1cc(Cl)ccc1NC(=O)CCCC(=O)C1CCC/C1=N\\NC(=O)CC#N (centres undefined)", "N"],
  ["CC(=O)/C=N/CC(=O)O", "N"],
  ["c1ccc2c(c1)Sc1ccccc1N2C1CN2CCC1CC2 (centres undefined)", "N"],
  ["CC(C)(C)OC(=O)NNC(=O)C1Cc2ccccc2OC1=O (centres undefined)", "N"],
  ["CC(=O)C1=C(C)Cn2c(=O)c3ccccc3c(=O)n2C1", "N"],
  ["COc1cc2c(/C=C3/C(=O)Nc4ccccc43)c(Cl)[nH]c2cc1C", "Y"],
  ["Cc1cc(NC(=O)NC(=O)c2ccccc2N(C)C)ccc1Oc1ncc(Br)cn1", "N"],
  ["N#CC(C(=O)CCC(=O)Nc1cccc(Cl)c1)c1ccccc1 (centres undefined)", "N"],
  ["C=C1C(=O)[C@@]23CC1C(O)[C@@H](OC(C)=O)[C@@H]2C1(C)C(OC(C)=O)C[C@@H](OC(C)=O)C(C)(C)[C@@H]1C[C@H]3OC(C)=O (some centres undefined)", "N"],
  ["O=[N+]([O-])c1ccc2nc3c(nc2c1)-c1c2ccccc2cc2cccc-3c12", "N"],
  ["CN(C)CCNC(=O)c1ccccc1Nc1c(Cl)cccc1Cl", "N"],
  ["N/N=C1\\C(=O)N(c2ccc(Cl)c(Cl)c2)C(=O)C1C(=O)Nc1ccc(Cl)c(Cl)c1 (centres undefined)", "N"],
  ["CC(=O)OC1(C#N)CC2OC1C1C2N1C(=O)c1ccccc1 (centres undefined)", "N"],
  ["O=C(CCC(=O)c1ccc(Cl)cc1)NO", "N"],
  ["CC(=O)/C=C1/c2ccccc2N(C(C)=O)C1O (centres undefined)", "N"],
  ["COc1cc2c(oc(=O)c3c4occc4cc(OC)c23)c2cccc(OCc3ccccc3)c12", "N"],
  ["O=c1[nH]nc(-c2ccccc2)c2[nH]c3c(c12)Cc1ccccc1-3", "N"],
  ["Cn1ncc2c(c1=O)Nc1ccccc1S2(=O)=O", "N"],
  ["O=C1CCC(=O)N1Sc1ccccc1", "N"],
  ["O=C1C=CC2CCC1C2 (centres undefined)", "N"],
  ["NC(=S)N/N=C1\\c2ccccc2CCC1CCC1(O)CCc2ccccc2C1=O (centres undefined)", "N"],
  ["Cc1cc(C)nc(NS(=O)(=O)c2ccc(NNc3c4ccccc4nc4c(C(=O)Nc5ccc(S(=O)(=O)N=C(N)N)cc5)cccc34)cc2)n1", "N"],
  ["[Zn+2][N+]12CCN3CCN4CCN(CC1)[PH]432 (centres undefined)", "N"],
  ["NC(=S)N/N=C(\\C(=O)Nc1cccc([N+](=O)[O-])c1)c1nc2ccc([N+](=O)[O-])cc2nc1O", "N"],
  ["O=C1NCC(NC(=O)C(F)(F)F)c2c(Br)sc(Br)c21 (centres undefined)", "N"],
  ["O=C1/C(=C/c2ccc(O)cc2)CC/C1=C\\c1ccc(O)cc1", "N"],
  ["C=C1C(=O)OC2C1CC(OC(C)=O)/C(C)=C/CCC1(C)OC21 (centres undefined)", "N"],
  ["CC(C)N1C(C)[C@@H](c2ccccc2)O[P@]1(=O)CC1=CCCCC1 (some centres undefined)", "N"],
  ["O=C1C2=Nc3ccccc3C(O)(C(=O)O)N2c2ccccc21 (centres undefined)", "N"],
  ["O=S(=O)(O)c1ccc(/N=N/c2ccc(/N=N/c3c(O)ccc4ccccc34)cc2)cc1", "N"]
]}
